List of pIC50 values.
# study system: A-Raf kinase (SEQ. ID No: 1) (Homo sapiens (Human), UniProt P10398, Y301D/Y302D)
# Sequence (P10398 other isoform, or with tags, fused parts or gaps Y301D (already in the parent)/Y302D (already in the parent)): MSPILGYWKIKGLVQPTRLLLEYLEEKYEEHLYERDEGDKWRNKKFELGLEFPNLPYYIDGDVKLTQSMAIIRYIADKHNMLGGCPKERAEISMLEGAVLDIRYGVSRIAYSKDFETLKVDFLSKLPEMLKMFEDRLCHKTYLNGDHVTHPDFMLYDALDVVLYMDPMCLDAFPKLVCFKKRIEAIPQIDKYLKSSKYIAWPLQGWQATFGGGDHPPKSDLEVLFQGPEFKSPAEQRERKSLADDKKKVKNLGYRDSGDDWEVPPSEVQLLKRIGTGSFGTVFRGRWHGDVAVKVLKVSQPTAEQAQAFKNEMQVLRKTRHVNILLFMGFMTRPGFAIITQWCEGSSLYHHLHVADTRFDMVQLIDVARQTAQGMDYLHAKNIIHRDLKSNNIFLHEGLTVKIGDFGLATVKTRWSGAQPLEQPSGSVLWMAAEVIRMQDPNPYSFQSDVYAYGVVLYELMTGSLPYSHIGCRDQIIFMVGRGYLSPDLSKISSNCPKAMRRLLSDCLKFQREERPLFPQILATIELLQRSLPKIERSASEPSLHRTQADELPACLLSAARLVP
# test details: Biochemical Assay for A-Raf (1)
# test settings: Table J, assay version (1); read-out: ARAF (1) IC50
# Method: Biochemical Assay for A-Raf (1) Activity of A-Raf kinase (SEQ. ID No: 1) was determined spectroscopically using a coupled pyruvate kinase/lactate dehydrogenase assay that continuously monitors the ATP hydrolysis-dependent oxidation of NADH (e.g., Schindler et al., Science, 2000, 289, 1938-1942). […] Inhibition of A-Raf was measured by adding serial diluted test compound (final assay concentration of 1% DMSO). […] The reaction rate was calculated using the 4 to 5 h time frame. […]
pIC50: −log10 of the molar value.

[
  {
    "sample smiles": "CC(=O)Nc1cc(-c2nccc(-c3cc(NC(=O)c4cccc(C(C)(C)C#N)c4)ccc3C)n2)ccn1",
    "pIC50": "6.30 to 7.00"
  }
]

Request: Report pIC50 for Cc1ncc(NC(=O)C2CCC3(CC2)COC3)cc1-c1nccc(-c2ccnc(NC(=O)C3CC3)c2)n1 please.
Response: 5.00 to 6.00

Request: Report pIC50 for CC(=O)Nc1cc(-c2cncc(-c3cc(NC(=O)c4ccnc(C5CC5)c4)ccc3C)n2)ccn1 please.
Response: 6.00 to 6.30

Request: Report pIC50 for CNC(=O)c1cc(-c2cc(-c3cc(NC(=O)c4ccnc(C(C)(C)F)c4)ccc3C)ccn2)ccn1 please.
Response: 5.00 to 6.00
